Test Target: recombinant agAP-AChE (Anopheles gambiae, UniProt Q869C3)
Sequence (Q869C3 39-737): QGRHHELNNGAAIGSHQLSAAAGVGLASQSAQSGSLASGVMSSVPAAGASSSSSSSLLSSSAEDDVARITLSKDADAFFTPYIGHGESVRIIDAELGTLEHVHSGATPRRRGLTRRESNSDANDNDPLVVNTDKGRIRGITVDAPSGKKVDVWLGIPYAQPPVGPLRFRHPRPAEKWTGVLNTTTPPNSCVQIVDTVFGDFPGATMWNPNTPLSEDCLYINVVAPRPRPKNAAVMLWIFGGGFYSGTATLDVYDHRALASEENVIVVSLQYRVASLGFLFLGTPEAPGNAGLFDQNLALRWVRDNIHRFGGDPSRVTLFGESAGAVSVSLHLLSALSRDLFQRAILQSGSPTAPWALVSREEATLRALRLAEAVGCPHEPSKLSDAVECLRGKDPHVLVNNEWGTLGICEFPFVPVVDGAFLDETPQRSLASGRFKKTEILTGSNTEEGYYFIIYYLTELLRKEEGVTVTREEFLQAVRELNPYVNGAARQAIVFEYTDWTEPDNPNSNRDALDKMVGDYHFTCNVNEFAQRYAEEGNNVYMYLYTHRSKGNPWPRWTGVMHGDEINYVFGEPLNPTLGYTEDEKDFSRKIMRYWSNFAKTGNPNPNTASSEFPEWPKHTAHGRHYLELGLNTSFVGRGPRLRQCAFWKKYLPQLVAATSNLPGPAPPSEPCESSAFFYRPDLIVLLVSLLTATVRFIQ
Protocol Notes: biochemical
Below, each of the molecules is paired with its reported Ki value.
Measurement Kind: Ki (nM)

* O=C1C=CC(=O)N1CCCCCCCCCCCCCCCCCCCC[n+]1ccccc1.[Br-] [PM20] | 400
* O=C([O-])C(F)(F)F.O=C1CCC(=O)N1CCCCCCCCCCCCCCCCCCCC[n+]1ccccc1 [PMS20] | 420
* Cl.O=C1CCC(=O)N1CCCCCCCCCCCCCCCCCCN1CCCCC1 [PYS18] | 26200

====

Test Target: recombinant hAChE (Homo sapiens, UniProt P22303)
Sequence (P22303 32-614): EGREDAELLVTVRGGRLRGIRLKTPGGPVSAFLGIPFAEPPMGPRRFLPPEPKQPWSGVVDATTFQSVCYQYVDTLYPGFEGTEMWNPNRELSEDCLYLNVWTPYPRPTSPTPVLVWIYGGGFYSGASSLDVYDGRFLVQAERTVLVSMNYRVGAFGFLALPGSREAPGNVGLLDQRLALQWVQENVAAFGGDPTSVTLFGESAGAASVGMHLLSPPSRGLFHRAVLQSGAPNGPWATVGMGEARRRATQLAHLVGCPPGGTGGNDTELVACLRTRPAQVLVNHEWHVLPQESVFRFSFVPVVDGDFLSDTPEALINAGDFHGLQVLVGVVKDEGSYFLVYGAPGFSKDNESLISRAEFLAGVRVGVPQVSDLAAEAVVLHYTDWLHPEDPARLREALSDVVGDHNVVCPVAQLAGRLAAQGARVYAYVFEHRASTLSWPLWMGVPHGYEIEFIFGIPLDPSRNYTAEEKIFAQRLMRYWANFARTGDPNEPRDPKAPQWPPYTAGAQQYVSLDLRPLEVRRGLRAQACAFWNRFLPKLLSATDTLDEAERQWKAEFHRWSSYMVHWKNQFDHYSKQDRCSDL
Protocol Notes: Time-course and dilution experiments of AChE inhibition
Type: biochemical
Measurement Kind: irreversible inhibition (time-course and dilution experiments)

• O=C1C=CC(=O)N1CCCCCCCCCCCCCCCCCCCC[n+]1ccccc1.[Br-] [PM20] = not hAChE
• Cl.O=C1C=CC(=O)N1CCCCCCCCCCCCCCCCCCN1CCCCC1 [PY18] = not hAChE
